test system: Bacillus subtilis; test: Antibacterial activity against tetracycline-resistant Bacillus subtilis ATCC 6633 assessed as growth inhibition by MTT assay; format: functional
Strictly below 2 µg/mL in MIC50: Satisfied. Otherwise: Not satisfied.

Regarding O=C(O)c1cn(-c2ccc(F)cc2)c2cc(N3CCN(CCOc4cc(O)c5c(=O)c(-c6ccc(O)cc6)coc5c4)CC3)c(F)cc2c1=O , kindly confirm whether its MIC50 is beneath 2 µg/mL.
Satisfied

Entry CC1CN(c2c(F)c(N)c3c(=O)c(C(=O)O)cn(C4CC4)c3c2F)CC(C)N1CCOc1cc(O)c2c(=O)cc(-c3ccccc3)oc2c1 (configuration not stated) please
Not satisfied

Note, next up: CCn1cc(C(=O)O)c(=O)c2cc(F)c(N3CCN(CCOc4cc(O)c5c(c4)O[C@H](c4ccc(O)cc4)CC5=O)CC3)cc21
Satisfied

Param item: O=C(O)c1cn(C2CC2)c2cc(N3CCN(CCOc4cc(O)c5c(=O)c(-c6ccc(O)cc6)coc5c4)CC3)c(F)cc2c1=O
Satisfied

# repeat for O=C(O)c1cn(C2CC2)c2cc(N3CCN(CCOc4cc(O)c5c(=O)cc(-c6ccc(O)cc6)oc5c4)CC3)c(F)cc2c1=O
Not satisfied

Param item: CCn1cc(C(=O)O)c(=O)c2cc(F)c(N3CCN(CCOc4cc(O)c5c(=O)c(-c6ccc(O)cc6)coc5c4)C(C)C3)c(F)c21 (configuration not stated)
Not satisfied

Now try CCn1cc(C(=O)O)c(=O)c2cc(F)c(N3CCN(CCOc4cc(O)c5c(=O)c(-c6ccc(O)cc6)coc5c4)CC3)nc21 .
Not satisfied

====

test system: Escherichia coli; assay: Antibacterial activity against multidrug resistant Escherichia coli ATCC 35218 assessed as growth inhibition by MTT assay; format: functional
hey, just use criterion met if measured MIC50 is less than 40 µg/mL, otherwise criterion not met

hey, is MIC50 for CCn1cc(C(=O)O)c(=O)c2cc(F)c(N3CCN(CCOc4cc(O)c5c(c4)O[C@H](c4ccc(O)cc4)CC5=O)CC3)cc21 lower than 40 µg/mL or not?
criterion met

Next: CCn1cc(C(=O)O)c(=O)c2cc(F)c(N3CCN(CCOc4cc(O)c5c(=O)cc(-c6ccccc6)oc5c4)CC3)cc21
criterion not met

Would you kindly repeat that for Nc1c(F)c(N2CCN(CCOc3cc(O)c4c(=O)cc(-c5ccccc5)oc4c3)CC2)cc2c1c(=O)c(C(=O)O)cn2-c1ccc(F)cc1 ?
criterion not met

And CCn1cc(C(=O)O)c(=O)c2cc(F)c(N3CCN(CCOc4cc(O)c5c(=O)c(-c6ccc(O)cc6)coc5c4)CC3)nc21 ?
criterion not met

Now give it for CCn1cc(C(=O)O)c(=O)c2ccc(N3CCN(CCOc4cc(O)c5c(c4)O[C@H](c4ccc(O)cc4)CC5=O)CC3)nc21 too.
criterion not met

And the next one, COc1ccc(-c2coc3cc(OCCN4CCN(c5cc6c(cc5F)c(=O)c(C(=O)O)cn6-c5ccc(F)cc5)CC4)cc(O)c3c2=O)cc1 ?
criterion not met

Follow-up entry: CCn1cc(C(=O)O)c(=O)c2cc(F)c(N3CCN(CCOc4cc(O)c5c(=O)c(-c6ccc(OC)cc6)coc5c4)CC3)cc21
criterion not met

Would you kindly repeat that for O=C(O)c1cn(C2CC2)c2cc(N3CCN(CCOc4cc(O)c5c(=O)cc(-c6ccccc6)oc5c4)CC3)c(F)cc2c1=O ?
criterion not met

Query CCn1cc(C(=O)O)c(=O)c2cc(F)c(N3CCN(CCOc4cc(O)c5c(=O)cc(-c6ccccc6)oc5c4)C(C)C3)c(F)c21 (stereo not given) next
criterion not met

Try this molecule too: O=C(O)c1cn(-c2ccc(F)cc2)c2cc(N3CCN(CCOc4cc(O)c5c(=O)c(-c6ccc(O)cc6)coc5c4)CC3)c(F)cc2c1=O
criterion met

// same read-out, input: CCn1cc(C(=O)O)c(=O)c2cc(F)c(N3CCN(CCOc4cc(O)c5c(=O)cc(-c6ccc(O)cc6)oc5c4)CC3)cc21
criterion not met

Entry to check: O=C(O)c1cn(C2CC2)c2cc(N3CCNCC3)c(F)cc2c1=O
criterion met

Let us now turn to CCn1cc(C(=O)O)c(=O)c2cc(F)c(N3CCN(CCOc4cc(O)c5c(=O)cc(-c6ccccc6)oc5c4)CC3)nc21
criterion not met
